Each recorded value in this set is attributed to paper PMC5540273.

system: S6K1; conditions: concentration: 1 μM, replicates: in singlicate; n = 1;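 also: KINOMEscan kinase panel screen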
Decision: %Inh compared against 10%; not below it gives TRUE, below it gives FALSE.

Solved cases (5 shown):
                                   molecule  tested_on    cat
0  Cc1ccc(NC(=O)c2cccc(C#N)c2)cc1-c1ccc(C(=O)Nc2ccncc2)cc1       S6K1   TRUE
1              Nc1n[nH]c2nnc(-c3ccccc3)cc12       S6K1   TRUE
2    Oc1ccc2ncnc(Nc3ccc(OCc4ccccc4)cc3)c2c1       S6K1  FALSE
3  Fc1cccc(COc2ccc(Nc3ncnc4cc[nH]c34)cc2Cl)c1       S6K1   TRUE
4  NC(=O)c1sc(-n2cnc3ccccc32)cc1OCc1ccccc1F       S6K1  FALSE

Turning to the following molecule.
Request: # check: %Inh of COc1ccc(NC(=O)c2ccc(-c3cc(-c4nnc(C)o4)ccc3C)cc2)cc1 is greater than or equal to 10%
Response: FALSE

----------
For each of the molecules below, state its %Inh.
system: CSK; details: concentration: 1 μM, replicates: in singlicate; n = 1
Answers are plain numbers, in %.

                                   molecule  tested_on  measure_name  reported_measurement
0  Nc1nc(-c2ccc3c(N)n[nH]c3c2)cc(N2CCC[C@@H](C(=O)Nc3ccccc3)C2)n1.O=C(O)C(F)(F)F.O=C(O)C(F)(F)F [GSK2288359]        CSK          %Inh                     8
1  O=C(CCO)NCCn1ccc2ncnc(Nc3ccc(Oc4cccc(C(F)(F)F)c4)c(Cl)c3)c21        CSK          %Inh                     3
2  COc1ccc(-c2oc3ncnc(N)c3c2-c2ccc(OC)cc2)cc1 [SB-589132]        CSK          %Inh                     0
3  COc1cc2c(Nc3cccc(NC(=O)c4ccccc4)c3)ncnc2cc1OCCCN1CCOCC1 [GSK223810]        CSK          %Inh                    23
4  O=c1cc(N2CCOCC2)nc2n(Cc3cccc(Cl)c3)ccn12 [GSK2296823]        CSK          %Inh                     0

Would you mind giving %Inh for every molecule in the list below?
1. CN1CCC(n2cnc(-c3ccc(F)cc3)c2-c2ccnc(NC3CCNCC3)n2)CC1 [SB-229482]
2. Clc1cc(Nc2ncnc3cc[nH]c23)ccc1OCc1ccccn1
3. C[C@H]1CC[C@@H](C(=O)Nc2ccccc2)CN1c1cc(-c2ccc3c(N)n[nH]c3c2)nc(N)n1 [GSK2283293]

Response:
[0, 17, 0]

Would you mind giving %Inh for every molecule in the list below?
1. CS(=O)(=O)CCNCc1ccc(-c2ccc3ncnc(Nc4ccc(OCc5ccccc5)c(Cl)c4)c3c2)o1.Cl [GW574783]
2. O=C(Nc1ccccc1)Nc1ccc(Oc2ccc3nccn3n2)cc1
3. Cc1ccc(NC(=O)c2cccc(C#N)c2)cc1-c1ccc(C(=O)Nc2ccncc2)cc1 [GSK1398463]
4. C[C@@H]1CCN(C(=O)CO)C[C@@H]1N(C)c1ncnc2[nH]ccc12
5. CNc1nccc(-c2c(-c3ccc(F)cc3)ncn2C2CCN(C)CC2)n1 [SB-222903]
6. CSc1nn2c(=O)cc(N3CCOCC3)nc2n1Cc1cccc(Cl)c1Cl [GSK2347225]
7. Oc1ccc2ncnc(Nc3ccc(OCc4ccccc4)cc3)c2c1 [GI262866]
8. COc1ccc(NC(=O)Nc2ccc(C)c(-c3ccc(C(=O)Nc4ccncc4)cc3)c2)cc1 [GSK1398475]

Response:
0
0
0
21
0
0
0
0

Would you mind giving %Inh for every molecule in the list below?
1. COC(=O)c1c(-c2ccccc2)c2cc(Cl)ccc2c(=O)n1Cc1ccc(S(C)(=O)=O)cc1
2. c1ccc(-c2ccc3c(-c4ccnc(Nc5ccc6c(c5)OCCO6)n4)cnn3n2)cc1 [GW818941]
3. Cl.c1ccc(Cn2ccc3cc(Nc4ncnc5ccccc45)ccc32)cc1 [GW275568]
4. COc1ccc(Nc2nccc(N3CCC(NC(=O)c4cccc(NC(C)=O)c4)C3)n2)cc1 (centres unmarked) [GSK1379732]
5. CC(C)N1CCC(n2cnc(-c3ccc(F)cc3)c2-c2ccnc(N)n2)CC1 [SB-223132]
6. Cl.Fc1ccccc1COc1ccc(Nc2ncnc3ccc(-c4nnc(C(F)(F)F)o4)cc23)cc1Cl [GW424170]
7. COc1cc2ncnc(Nc3ccc(OCc4ccccc4Br)c(Cl)c3)c2cc1OC.Cl [GI261590]

Response:
1: 0; 2: 84; 3: 20; 4: 0; 5: 0; 6: 0; 7: 7

----------
tested on: PLK3; conditions: concentration: 1 μM, replicates: in singlicate; n = 1
For each of the compounds below, state its %Inh.
Give bare numbers, in %.

                                   compound  tested_on  result_unit  reported_measurement
0  Fc1cccc(COc2ccc(Nc3ncnc4nn5ccccc5c34)cc2Cl)c1       PLK3            %                     0
1  Fc1ccc(-c2ncn(CCCNCc3ccccc3)c2-c2ccncc2)cc1       PLK3            %                    13
2  OCCOCCn1ccc2ncnc(Nc3ccc(Oc4cccc(Cl)c4)c(Cl)c3)c21       PLK3            %                     0

Would you mind giving %Inh for every compound in the list below?
1. Cl.Cn1ccc(-c2cccc(Nc3ccnc4cc(-c5nccs5)ccc34)c2)n1
2. Oc1ccc2ncnc(Nc3ccc(OCc4ccccc4)cc3)c2c1
3. Cn1ccc2ncnc(Oc3ccc(NC(=O)Nc4cccnc4)c(Cl)c3)c21

Response:
0
0
11

Would you mind giving %Inh for every compound in the list below?
1. CC(C)(C)OC(=O)NC1CCCN(c2cc(-c3ccc4c(N)n[nH]c4c3)nc(N)n2)C1 (stereo not drawn)
2. Fc1ccc(Nc2nccc(-c3c(-c4ccc(Cl)cc4)nn4ncccc34)n2)cc1F
3. COc1ccc(Nc2nccc(N3CCC(NC(=O)Nc4ccc5c(c4)OCO5)C3)n2)cc1 (stereo not drawn)
4. Cc1ccc(C)c(NC(=O)NCCNc2ccnc(Nc3ccc(F)cc3)n2)c1

Response:
[0, 20, 0, 0]

----------
system: MLK2; details: concentration: 1 μM, replicates: in singlicate; n = 1
Measure name: %Inh (%)
Answers are plain numbers, in %.

>>> print(df.to_string())
                                   compound  result_unit  reported_measurement
0      Nc1nc(-c2ccccn2)c(-c2ccnc3ccccc23)s1            %                     0
1  O=C(Nc1ccccc1F)NC1CCN(c2ccnc(Nc3ccc(F)cc3)n2)C1 (stereo not drawn)            %                     0
2    Oc1ccc2ncnc(Nc3ccc(OCc4ccccc4)cc3)c2c1            %                    24
3  COc1ccc(Nc2nccc(N3CCC(NC(=O)c4cccc(NC(C)=O)c4)C3)n2)cc1 (stereo not drawn)            %                     0
4  N#Cc1ccc(Oc2ccc(Nc3ncnc4cc[nH]c34)cc2Cl)cc1            %                     0
5              Nc1n[nH]c2nnc(-c3ccccc3)cc12            %                     0
6  C[C@@H]1CCN(C(=O)CO)C[C@@H]1N(C)c1ncnc2[nH]ccc12            %                    35
7  CC(C)N1CCC(n2cnc(-c3ccc(F)cc3)c2-c2ccnc(N)n2)CC1            %                     4

Would you mind giving %Inh for every compound in the list below?
1. CS(=O)(=O)CCNCc1nc(-c2ccc3ncnc(Nc4ccc(OCc5cccc(F)c5)c(Cl)c4)c3c2)cs1.Cl
2. Cl.Cn1ccc(-c2cccc(Nc3ccnc4cc(-c5nccs5)ccc34)c2)n1
3. Cl.O=S(=O)(c1cccc(F)c1)c1ccc(Nc2ncnc3cc(Br)sc23)cc1Cl
4. Cl.c1ccc(Cn2ccc3cc(Nc4ncnc5ccccc45)ccc32)cc1
5. O=C(NCCCN1CCCC1=O)c1cnc(NCc2cc(Cl)ccc2Cl)nc1NC1CCNCC1
6. CCC(CC)(CC)n1cnc2c(N)ncnc21
7. Nc1nc(-c2ccc3c(N)n[nH]c3c2)cc(N2CCCCC2)n1

Response:
[0, 0, 0, 0, 0, 3, 0]

Would you mind giving %Inh for every compound in the list below?
1. CN1CCC(n2cnc(-c3ccc(F)cc3)c2-c2ccnc(NC3CCNCC3)n2)CC1
2. Nc1nc(-c2ccc3c(N)n[nH]c3c2)cc(N2CCC[C@@H](C(=O)Nc3ccccc3)C2)n1.O=C(O)C(F)(F)F.O=C(O)C(F)(F)F
3. C[C@H]1CC[C@@H](C(=O)Nc2ccccc2)CN1c1cc(-c2ccc3c(N)n[nH]c3c2)nc(N)n1

Response:
5
0
0
